- PROCEDURE TEXT: Solubility in PBS buffet at pH 7.4 at 100 uM incubated for 18 hrs by UPLC-MS method
- Assay type: physicochemical
- CONDITIONS USED: buffer, pH 7.4, 18 h, 100 µM
List of solubility values.

# SMILES CODE, solubility
data = [
    ("COc1ccc(COC[C@H](C)N2C[C@@H](C)[C@H](CN(C)S(=O)(=O)c3ccc(F)cc3)OCCCOc3ccc(NC(=O)Nc4c(C)noc4C)cc3C2=O)cc1", "< 5 µM"),
    ("COc1ccc(COC[C@H](C)N2C[C@@H](C)[C@H](CN(C)S(=O)(=O)c3ccc(F)cc3)OCCCCOc3ccc(NC(=O)Nc4c(C)noc4C)cc3C2=O)cc1", "< 5 µM"),
    ("Cc1noc(C)c1NC(=O)Nc1ccc2c(c1)C(=O)N([C@@H](C)CN(C)C)C[C@@H](C)[C@H](CN(C)S(=O)(=O)c1ccc(F)cc1)OCCCCCO2", "> 100 µM"),
    ("Cc1noc(C)c1NC(=O)Nc1ccc2c(c1)C(=O)N([C@@H](C)CN1CCOCC1)C[C@@H](C)[C@H](CN(C)S(=O)(=O)c1ccc(F)cc1)OCCCC[C@H](C)O2", "29 µM"),
    ("C[C@@H]1CN([C@@H](C)CN(C)Cc2cc(F)ccc2F)C(=O)c2cccnc2O[C@@H](C)CCCCO[C@H]1CN(C)S(=O)(=O)c1ccc(F)cc1", "< 5 µM"),
    ("CCN(CC)C[C@H](C)N1C[C@@H](C)[C@H](CN(C)S(=O)(=O)c2ccc(F)cc2)OCCCC[C@H](C)Oc2ccc(NC(=O)Nc3c(C)noc3C)cc2C1=O", "8 µM"),
    ("COc1ccc(COC[C@H](C)N2C[C@@H](C)[C@H](CN(C)S(=O)(=O)c3ccc(F)cc3)OCCCC[C@H](C)Oc3ccsc3C2=O)cc1", "< 5 µM"),
    ("CCN(CC)C[C@H](C)N1C[C@@H](C)[C@H](CN(C)S(=O)(=O)c2ccc(F)cc2)OCCCC[C@H](C)Oc2ncccc2C1=O", "> 100 µM"),
    ("CNC[C@H](C)N1C[C@@H](C)[C@H](CN(C)S(=O)(=O)c2ccc(F)cc2)OCCCC[C@H](C)Oc2ccc(NC(=O)Nc3c(C)noc3C)cc2C1=O", "> 100 µM"),
    ("Cc1noc(C)c1NC(=O)Nc1ccc2c(c1)C(=O)N([C@@H](C)CNCC(C)(C)C)C[C@@H](C)[C@H](CN(C)S(=O)(=O)c1ccc(F)cc1)OCCCC[C@H](C)O2", "7 µM"),
    ("C[C@@H]1CN([C@@H](C)CN(C)C)C(=O)c2cc(NC(=O)Nc3ccc(F)cc3)ccc2O[C@@H](C)CCCCO[C@H]1CN(C)S(=O)(=O)c1ccc(F)cc1", "< 5 µM"),
    ("Cc1noc(C)c1NC(=O)Nc1ccc2c(c1)C(=O)N([C@@H](C)CN(C)C)C[C@@H](C)[C@H](CN(C)S(=O)(=O)c1ccc(F)cc1)OCCCCO2", "> 100 µM"),
    ("COc1ccc(COC[C@H](C)N2C[C@@H](C)[C@H](CN(C)S(=O)(=O)c3ccc(F)cc3)OCCCC[C@H](C)Oc3cc(C(F)(F)F)ccc3C2=O)cc1", "< 5 µM"),
    ("Cc1noc(C)c1NC(=O)Nc1ccc2c(c1)C(=O)N([C@@H](C)CN(C)C)CC[C@H](CN(C)S(=O)(=O)c1ccc(F)cc1)OCCCC[C@H](C)O2", "99 µM"),
    ("COc1ccc(COC[C@H](C)N2CC[C@H](CN(C)S(=O)(=O)c3ccc(F)cc3)OCCCC[C@H](C)Oc3ccc(NC(=O)Nc4c(C)noc4C)cc3C2=O)cc1", "< 5 µM"),
    ("Cc1noc(C)c1NC(=O)Nc1ccc2c(c1)C(=O)N([C@@H](C)CN(C)C)C[C@@H](C)[C@H](CN(C)S(=O)(=O)c1ccc(F)cc1)OCCCC[C@H](C)O2", "> 100 µM"),
    ("COc1ccc(COC[C@H](C)N2C[C@@H](C)[C@H](CN(C)S(=O)(=O)c3ccc(F)cc3)OCCOc3ccc(NC(=O)Nc4c(C)noc4C)cc3C2=O)cc1", "6 µM"),
    ("COc1ccc(COC[C@H](C)N2C[C@@H](C)[C@H](CN(C)S(=O)(=O)c3ccc(F)cc3)OCCCC[C@H](C)Oc3ncc(F)cc3C2=O)cc1", "< 5 µM"),
    ("C[C@@H]1CN([C@@H](C)CN(C)C)C(=O)c2cccnc2O[C@@H](C)CCCCO[C@H]1CN(C)S(=O)(=O)c1ccc(F)cc1", "> 100 µM"),
    ("CNC[C@H](C)N1C[C@@H](C)[C@H](CN(C)S(=O)(=O)c2ccc(F)cc2)OCCCCOc2ccc(NC(=O)Nc3c(C)noc3C)cc2C1=O", "> 100 µM"),
    ("COc1ccc(COC[C@H](C)N2C[C@@H](C)[C@H](CN(C)S(=O)(=O)c3ccc(F)cc3)OCCCC[C@H](C)OCCC2=O)cc1", "< 5 µM"),
    ("Cc1noc(C)c1NC(=O)Nc1ccc2c(c1)C(=O)N([C@@H](C)C[N+](C)(C)[O-])C[C@@H](C)[C@H](CN(C)S(=O)(=O)c1ccc(F)cc1)OCCCC[C@H](C)O2", "> 100 µM"),
    ("C[C@@H]1CN([C@@H](C)CN(C)C)C(=O)c2cc(NC(=O)NC3COC3)ccc2O[C@@H](C)CCCCO[C@H]1CN(C)S(=O)(=O)c1ccc(F)cc1", "> 100 µM"),
    ("COc1ccc(COC[C@H](C)N2C[C@@H](C)[C@H](CN(C)S(=O)(=O)c3ccc(F)cc3)OCCCC[C@H](C)Oc3cc(F)ccc3C2=O)cc1", "< 5 µM"),
]

FYI, the data here is from ChEMBL document CHEMBL3351611.
